MEASUREMENT NOTES: cell viability in Huh7 cells, primary screen, cytotoxicity control for HCV replication inhibitor project, CellTiter-Glo luminescence, basal, 48 h (AID 1143);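 further: Huh7 hepatoma cells carrying a hepatitis C replication reporter with no stimulus; test concentration not given here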
PARTICULARS: Huh7 HCV replicon, higher = more signal, called active from +8 up or from −8 down

# MOLECULE, z-score
rows = [
    ("CCOC(=O)C1=CCC(c2cccn2C(=O)OC(C)(C)C)N(S(=O)(=O)c2ccc(C)cc2)C1 (centres undefined)", -4.35),
    ("COc1ccc([Si](C)(C)[C@H]2[C@H](CCO)O[C@@]3(C(=O)N(Cc4ccccc4)c4ccc(NC(=O)[C@H](C)O)cc43)[C@@H]2C)cc1", -7.85),
    ("C=CCN1C(=O)[C@@]2(O[C@@H](CCO)[C@H]([Si](C)(C)c3ccc(OC)cc3)[C@H]2C)c2cc(N3CCCCC3=O)ccc21", -5.3),
    ("C=C(COC)C(=O)CC[C@@H](OC(=O)c1ccccc1-c1ccccc1C(=O)O)c1ccccc1OCCO", -0.714),
]

###

System: Inhibin beta A chain (activin A)
MEASUREMENT NOTES: INHBA (activin A) binders on microarrays, primary screen, biochemical, small-molecule microarray, 635 nm fluorescence scan (AID 1107);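 further: mouse activin A protein probed at 4.33 µg/mL on printed slides; score merges bound-protein fluorescence near 667 nm with spot signal-to-noise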
PARTICULARS: small-molecule microarray binding, higher = more signal
METRIC: composite z-score

# COMPOUND, OBSERVED RESULT
rows = [
    ("COc1ccc(NN2C(C(O)c3ccc(F)cc3)C=CC3C(=O)N(C4CCCCC4)C(=O)C32)cc1 (stereo not given)", 1.24),
    ("O=C1NC(=O)C2C1C=CC(C(O)C(O)CO)N2Nc1ccccn1 (stereo not given)", 0.0473),
    ("COc1c(C)cc(-c2cc3c(c(CCc4ccccc4)n2)[Si](C(C)C)(C(C)C)O[C@H]3c2ccccc2)cc1C", -0.0185),
    ("COC(=O)C(CC#Cc1ccc2c(c1)[C@]1(C(=O)N2)[C@H](c2ccc(OCCO)cc2)N2[C@H](c3ccccc3)[C@H](c3ccccc3)OC(=O)[C@H]2[C@@H]1C(N)=O)C(=O)OC", 0.161),
    ("Cc1ccc(N2C(=O)c3ccccc3[C@@H](C(=O)NCCN3CCOCC3)[C@@H]2c2ccc(CO)cc2)nc1", -0.382),
    ("COC(=O)[C@@]1(Cc2ccc(F)cc2)[C@H]2c3cc(C(=O)N4CCCC4)n(C[C@H](O)CO)c3C[C@H]2CN1C(=O)c1ccccc1", 0.549),
    ("O=C1OCC=C[C@H]2OC34C=CCN(Cn5nnc6ccccc65)C(=O)[C@H]3N(CCO)C(=O)[C@@H]4[C@@H]12 (stereo not given in full)", -0.0812),
    ("C=CCN1C(=O)[C@]2(O[C@H](CCO)[C@@H]([Si](C)(C)c3ccc(OC)cc3)[C@@H]2C)c2cc(N3C(=O)c4ccccc4Oc4ccccc43)ccc21", 0.206),
    ("COc1ccc([Si](C)(C)[C@H]2[C@H](CC(=O)N(CCO)Cc3ccccc3)O[C@@]3(C(=O)N(Cc4ccc(N5C(=O)c6cccc7cccc5c67)cc4)c4ccccc43)[C@@H]2C)cc1", 0.803),
    ("CC1CC/C=C\\[C@H]2OC34C=CCN(CCN5CCOCC5)C(=O)[C@H]3N(C(CO)C(C)C)C(=O)[C@@H]4C2C(=O)O1 (stereo not given in full)", 1.17),
]

###

# composite z-score per record follows
MEASUREMENT NOTES: small-molecule microarray binders of probe aNog, primary screen, biochemical, biotinylated probe, 635/667 nm fluorescence (AID 1115);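 further: probe is biotinylated aNog protein used at 0.15 µg/mL for 1 h at 4 C; z-score combines 667 nm fluorescence of each spot with its signal to noise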
PARTICULARS: higher = more signal

# COMPOUND, composite z-score
measured = [
    ("CC(C)C[C@@H]1NC(=O)[C@H]2C[C@@H](C(=O)O)[C@@H](c3cccc(OCCO)c3)N2C1=O", -0.0503),
    ("CC(C)C(=C=CC[C@H](O)c1cccc(OCCO)c1)C[C@H](O)c1ccccn1", -0.147),
    ("C=CCOC(=O)[C@@H]1[C@H]2C(=O)O[C@H](c3ccccc3)[C@H](c3ccccc3)N2[C@H](c2ccc(OCCOC(=O)[C@@H]3C[C@@H]4C(=O)N[C@@H](CC(C)C)C(=O)N4[C@@H]3c3ccc(O)cc3)cc2)[C@@]12C(=O)Nc1ccc(I)cc12", 1.12),
    ("CCCCCCc1nc(-c2ccc(OC)nc2)c(C)c2c1[Si](C(C)C)(C(C)C)OC2", -0.129),
    ("Cc1ccc(S[C@]2(C(=O)NC(C)C)CC(=O)N(Cc3ccccc3)[C@@H]2c2ccc(CO)cc2)cc1", 0.0258),
    ("CN(C)CCCCNC(=O)[C@H]1C[C@H]2C(=O)N[C@@H](CCCCN(C)C)C(=O)N2[C@H]1c1ccc(O)cc1", -0.0446),
    ("CCCC[C@@H](O)C1=C(C)Cn2c(=O)n(-c3ccccc3)c(=O)n2[C@H]1CO", 0.115),
    ("COc1ccc(CCNC(=O)[C@@]2(C)c3ccccc3C(=O)N(Cc3ccc(OC(F)(F)F)cc3)[C@H]2c2ccc(CO)cc2)cc1", -0.737),
    ("COc1ccc([Si](C)(C)[C@@H]2[C@@H](CC(=O)N3CCC[C@H]3CO)O[C@]3(C(=O)N(Cc4cccc(N5C(=O)c6cccc7cccc5c67)c4)c4ccccc43)[C@H]2C)cc1", -0.458),
    ("C=CCNC(=O)[C@@H]1[C@H]2C(=O)O[C@H](c3ccccc3)[C@H](c3ccccc3)N2[C@H](c2ccc(O)cc2)[C@@]12C(=O)Nc1ccc(C#CC3=CCCCC3)cc12", 2.03),
    ("COc1ccc([Si](C)(C)[C@H]2[C@H](CC(=O)N(CCO)Cc3ccccc3)O[C@@]3(C(=O)N(Cc4ccc(N5C(=O)c6cccc7cccc5c67)cc4)c4ccccc43)[C@@H]2C)cc1", 0.945),
    ("C=C(C(=O)CC[C@@H](OC(=O)c1ccccc1-c1ccccc1C(=O)O)c1cccc(OCCO)c1)C(C)C", -0.248),
    ("CN1C(=O)C2CC=C(C3=CCO[C@@H]3[C@H]3CCCN3S(=O)(=O)c3ccccc3[N+](=O)[O-])CC2C1=O (some centres not stated)", -0.0116),
    ("COCCCNC(=O)[C@]1(Cc2ccccc2CN=[N+]=[N-])N=C(c2ccc(OCCCO)cc2)O[C@@H]1c1ccccc1N=[N+]=[N-]", 0.467),
    ("Cc1ccc(S[C@]2(C(=O)NC(C)C)CC(=O)N(Cc3ccccc3)[C@@H]2c2ccc(CO)cc2I)cc1", 0.813),
    ("COC(=O)[C@@]1(Cc2ccc(F)cc2)[C@H]2c3cc(C(=O)N4CCCC4)n(Cc4ccc(C(F)(F)F)nc4)c3C[C@H]2CN1C(=O)c1ccccc1", -1.06),
    ("COCCOC(=O)N1C(=O)[C@@]2(c3cc(C#CC4(O)CCCCCC4)ccc31)[C@H](C(N)=O)[C@H]1C(=O)O[C@H](c3ccccc3)[C@H](c3ccccc3)N1[C@@H]2c1ccc(OCCO)cc1", 0.176),
    ("COCCOC(=O)N1C(=O)[C@@]2(c3ccccc31)[C@H](C(=O)Nc1nc3ccccc3s1)[C@H]1C(=O)O[C@H](c3ccccc3)[C@H](c3ccccc3)N1[C@@H]2c1ccccc1OCCO", 0.36),
    ("O=C1OCC=C[C@H]2OC34C=CCN(Cn5nnc6ccccc65)C(=O)[C@H]3N(CCO)C(=O)[C@@H]4[C@@H]12 (some centres not stated)", 0.0963),
    ("COc1ccc([Si](C)(C)[C@@H]2[C@@H](CC(=O)N(CCO)Cc3ccccc3)O[C@]3(C(=O)N(Cc4cccc(I)c4)c4ccccc43)[C@H]2C)cc1", 0.0051),
    ("[N-]=[N+]=NCc1ccccc1C[C@@]1(C(N)=O)N=C(c2ccc(OCCCO)cc2)O[C@@H]1c1ccccc1N=[N+]=[N-]", -0.561),
    ("N#Cc1ccc(NN2C(C(O)c3ccc(B(O)O)cc3)C=CC3CN(c4ccccc4)C(=O)C32)cc1 (configuration not stated)", -0.196),
    ("COCCOC(=O)N1C(=O)[C@@]2(c3cc(C#CC4=CCCCC4)ccc31)[C@H](C(=O)N1CCCCCCC1)[C@H]1C(=O)O[C@H](c3ccccc3)[C@H](c3ccccc3)N1[C@@H]2c1ccccc1OCCO", 1.2),
    ("CC(C)c1ccc(NN2C(C(O)c3ccccc3)C=CC3C(=O)N(c4ccccc4)C(=O)C32)cc1 (configuration not stated)", 0.0811),
    ("O=C1NC(=O)C2C1C=CC(C(O)c1ccc(F)cc1)N2Nc1ccc(Cl)cc1Cl (configuration not stated)", 0.993),
    ("CC[C@@H](O[Si](C#C[Si](C(C)C)(C(C)C)C(C)C)(C(C)C)C(C)C)c1cn(Cc2cccc(Cl)c2)nn1", -0.124),
    ("COCCCNC(=O)[C@@]1(Cc2ccccc2I)c2ccccc2C(=O)N(Cc2ccccc2C(F)(F)F)[C@H]1c1ccc(CO)cc1", 0.2),
]
